# PROCEDURE TEXT: Caspase-3/7 induction in CHO-K1 cells by small molecules, qHTS cell viability counter screen (AID 1346979); further: on the % scale 0 is the no-effect control and ±100 the full control effect; nearly all actives have a fitted effect of over 35% in size
# CONDITION LABEL: CellTiter-Fluor fluorescence, 17 h; series mostly up to 92.4 µM
Results filed as inconclusive are left out. The source made the active and inactive calls. The call rests on the fitted dose curve; in most records, active means well fitted cell-killing curve with a large enough effect in the repeat runs; inconclusive means weak or mixed curves, or effect the other way; inactive means no such curve, though single readings can be large or run the other way.
OBSERVATION TYPE: activity change, negative = cytotoxicity

1. COc1cc(C(=S)N2CCOCC2)cc(OC)c1OC; inactive
2. C=COCCOCCOCCOC=C; inactive
3. CCOC(=O)[C@H](CCc1ccccc1)N[C@@H](C)C(=O)N1C(=O)N(C)C[C@H]1C(=O)O; inactive
4. CN1CCN(CC(=O)N2c3ccccc3C(=O)Nc3cccnc32)CC1; 7.7% [at 8.39 µM] (inactive)
5. CC(=O)N[C@@H](CCC(=O)O)C(=O)O; inactive
6. O=C(NCC(O)CO)c1c(I)c(C(=O)NCC(O)CO)c(I)c(N(CCO)C(=O)CO)c1I (configuration not stated); inactive
7. CC(C)(C)c1n[nH]c(=S)n(N)c1=O; inactive
8. COC(=O)C1CC(=O)C(C(=O)OC)CC1=O (configuration not stated); 8.06% [at 8.39 µM] (inactive)
9. COc1nccnc1NS(=O)(=O)c1ccc(N)cc1; inactive
10. Cc1ccccc1N=O; inactive
11. OC[C@H](Cc1cccc(O)c1)[C@H](CO)Cc1cccc(O)c1; inactive
12. O=S(=O)(O)CCN1CCN(CCO)CC1; inactive
